standardized gMFI for assorted binders
Target: T1, 1F
T1 construct: also called HLA-A2 / point-mutant NY-ESO peptide 1F complex on T2 cells
Experiment: flow cytometry on peptide-pulsed T2 cells, scFv 100 nM
measurement.name: standardized gMFI

{"columns": ["binder", "meas.value"],
 "data": [
  ["NYA-2047 (scFv) scFv: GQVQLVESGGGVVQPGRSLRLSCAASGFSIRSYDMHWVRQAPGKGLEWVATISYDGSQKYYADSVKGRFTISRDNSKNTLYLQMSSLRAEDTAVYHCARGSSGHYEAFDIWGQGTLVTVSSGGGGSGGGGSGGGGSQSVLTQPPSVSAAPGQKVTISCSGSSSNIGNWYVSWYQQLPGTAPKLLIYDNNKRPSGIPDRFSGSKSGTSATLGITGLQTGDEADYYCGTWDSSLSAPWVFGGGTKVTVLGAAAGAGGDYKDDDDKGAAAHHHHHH", 0.48],
  ["NYA-2023 (scFv) scFv: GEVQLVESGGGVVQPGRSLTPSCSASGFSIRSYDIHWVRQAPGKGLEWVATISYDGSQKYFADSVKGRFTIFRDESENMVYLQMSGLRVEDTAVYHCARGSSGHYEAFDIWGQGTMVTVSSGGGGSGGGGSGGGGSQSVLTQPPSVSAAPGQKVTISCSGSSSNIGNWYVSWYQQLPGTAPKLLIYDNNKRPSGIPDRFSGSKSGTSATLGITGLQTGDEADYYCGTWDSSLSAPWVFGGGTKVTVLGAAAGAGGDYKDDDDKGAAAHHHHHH", 0.72]
]}
